Kindly supply the reported protein stability index values for the records listed here.
B1: TBC1D10A (parent)
chain: WCLVQICEKYLPGYYSEKLEAIQL

# Variants of: B1
# run.description: protein stability index of a GFP-peptide fusion (GPS, HEK-293T) (PSI 1-6); higher = more stable;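 also: lentivirally expressed fusions sorted by FACS into six bins by GFP to DsRed ratio, PSI derived from sequencing read proportions per bin multiplied by bin number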
# condition.set: c terminus: a fixed tail appended
Answers are plain numbers.

Answered examples (2):
Ask: Look up and state reported protein stability index for WCLVQICEKYEPGYYSEKLEAIQL [L11E]
Result: 2.65

Ask: Look up and state reported protein stability index for WCLVQICEKYLPGYYSEKLEALQL [I22L]
Result: 4.01

For each of the variants below, state protein stability index.
1. WCWVQICEKYLPGYYSEKLEAIQL [L3W]
2. WCLVQICMKYLPGYYSEKLEAIQL [E8M]
3. WCLVQICEKYLPWYYSEKLEAIQL [G13W]
4. WCLVQICEKYLPGYYSEKLELIQL [A21L]
5. WCLPQICEKYLPGYYSEKLEAIQL [V4P]
6. WCLVQICEKYLPGYYSEKLEAITL [Q23T]
7. WCLVQICEKYLPGDYSEKLEAIQL [Y14D]

Result:
1: 1.02; 2: 2.81; 3: 2.7; 4: 4.51; 5: 1.73; 6: 5.09; 7: 3.02

Ask: Look up and state reported protein stability index for WCLVQICEKYLPGYYSEKLETIQL [A21T]
Result: 2.15
